System: SCC-VII (mouse squamous carcinoma) cell line
test-protocol: MTT cell viability assay on SCC-VII cells
Assay type: cell-based
condition-details: Mus musculus, 48 h
Listed next: entries and their corresponding IC50.
Please respond with the number in µM and leave the unit unwritten.

Cc1cn([C@@H]2O[C@H](CO[Si](C)(C)C(C)(C)C)[C@H](CSCCO)[C@H]2O[Si](C)(C)C(C)(C)C)c(=O)[nH]c1=O ... 16
Cc1cn([C@@H]2O[C@H](CO[Si](C)(C)C(C)(C)C)[C@H](CSCc3ccccc3)[C@H]2O[Si](C)(C)C(C)(C)C)c(=O)[nH]c1=O ... 14.6
CCCCCCCCSC[C@@H]1[C@@H](O[Si](C)(C)C(C)(C)C)[C@H](n2cc(C)c(=O)[nH]c2=O)O[C@@H]1CO[Si](C)(C)C(C)(C)C ... 26
Cc1cn([C@@H]2O[C@H](CO[Si](C)(C)C(C)(C)C)[C@H](CSC(C)C)[C@H]2O[Si](C)(C)C(C)(C)C)c(=O)[nH]c1=O ... 15.2

As a next step, examine the molecule that follows.
Qu. Entry CCCCCCSC[C@@H]1[C@@H](O[Si](C)(C)C(C)(C)C)[C@H](n2cc(C)c(=O)[nH]c2=O)O[C@@H]1CO[Si](C)(C)C(C)(C)C needs its IC50 filled in; supply it.
Ans. 15.9

###

System: SCC-VII (mouse squamous carcinoma) cell line
test-protocol: MTT cell viability assay on SCC-VII cells
Format: cell-based
condition-details: Mus musculus, 48 h
This listing pairs compounds with measured IC50.

Guide cases for IC50, answers given:
CCCSC[C@@H]1[C@@H](O[Si](C)(C)C(C)(C)C)[C@H](n2ccc(=O)[nH]c2=O)O[C@@H]1CO[Si](C)(C)C(C)(C)C [Compound 2] ... 11.8 µM
CCCSC[C@@H]1[C@@H](O[Si](C)(C)C(C)(C)C)[C@H](n2cc(C)c(=O)[nH]c2=O)O[C@@H]1CO[Si](C)(C)C(C)(C)C [Compound 5] ... 15.2 µM
CN(Cc1cnc2nc(N)nc(N)c2n1)c1ccc(C(=O)N[C@@H](CCC(=O)O)C(=O)O)cc1 [Methotrexate, reference compound] ... 216 µM
CCCCCCCCCCCCSC[C@@H]1[C@@H](O[Si](C)(C)C(C)(C)C)[C@H](n2cc(C)c(=O)[nH]c2=O)O[C@@H]1CO[Si](C)(C)C(C)(C)C [Compound 15] ... > 20 µg/mL

Qu. Using SCC-VII (mouse squamous carcinoma) cell line as the test system, report measured IC50 of CCSC[C@@H]1[C@@H](O)[C@H](n2cc(C)c(=O)[nH]c2=O)O[C@@H]1CO [Compound 19] .
Ans. > 20 µg/mL

Qu. Write IC50 of Cc1cn([C@@H]2O[C@H](CO[Si](C)(C)C(C)(C)C)[C@H](CSC(C)(C)C)[C@H]2O[Si](C)(C)C(C)(C)C)c(=O)[nH]c1=O [Compound 12] ; system used: SCC-VII (mouse squamous carcinoma) cell line
Ans. 31.1 µM

Qu. Send back SCC-VII (mouse squamous carcinoma) cell line IC50 of CCCCSC[C@@H]1[C@@H](O[Si](C)(C)C(C)(C)C)[C@H](n2cc(C)c(=O)[nH]c2=O)O[C@@H]1CO[Si](C)(C)C(C)(C)C [Compound 10] only.
Ans. 17 µM

Qu. Please look at CCCCSC[C@@H]1[C@@H](O[Si](C)(C)C(C)(C)C)[C@H](n2ccc(=O)[nH]c2=O)O[C@@H]1CO[Si](C)(C)C(C)(C)C [Compound 18] and tell me its recorded IC50 on SCC-VII (mouse squamous carcinoma) cell line.
Ans. 10.9 µM

Qu. Please report the measured IC50 for CC(=O)OC[C@H]1O[C@@H](SC[C@@H]2[C@@H](O[Si](C)(C)C(C)(C)C)[C@H](n3cc(C)c(=O)[nH]c3=O)O[C@@H]2CO[Si](C)(C)C(C)(C)C)[C@H](OC(C)=O)[C@@H](OC(C)=O)[C@@H]1OC(C)=O [Compound 3] tested on SCC-VII (mouse squamous carcinoma) cell line.
Ans. > 20 µg/mL

Qu. Output reported IC50 of the compound Cc1cn([C@@H]2O[C@H](CO[Si](C)(C)C(C)(C)C)[C@@H](O)[C@H]2O[Si](C)(C)C(C)(C)C)c(=O)[nH]c1=O [Compound 6T] on SCC-VII (mouse squamous carcinoma) cell line.
Ans. 18.8 µM

Qu. With SCC-VII (mouse squamous carcinoma) cell line as the test system, provide measured IC50 for this compound: CCSC[C@@H]1[C@@H](O[Si](C)(C)C(C)(C)C)[C@H](n2cc(C)c(=O)[nH]c2=O)O[C@@H]1CO[Si](C)(C)C(C)(C)C [Compound 8]
Ans. 15.5 µM

Qu. Provide the reported IC50 (system: SCC-VII (mouse squamous carcinoma) cell line) for Cc1cn([C@@H]2O[C@H](CO[Si](C)(C)C(C)(C)C)[C@H](CSCC(C)C)[C@H]2O[Si](C)(C)C(C)(C)C)c(=O)[nH]c1=O [Compound 11]
Ans. 23.5 µM

###

Tested on: HaCaT (human keratinocyte) cell line
test-protocol: MTT cell viability assay on HaCaT cells
Assay type: cell-based
condition-details: MTT, 48 h incubation, 10,000 cells/well; '-' = no cytotoxicity at 20 µg/mL
recorded-endpoint: HaCaT IC50

CCCSC[C@@H]1[C@@H](O[Si](C)(C)C(C)(C)C)[C@H](n2ccc(=O)[nH]c2=O)O[C@@H]1CO[Si](C)(C)C(C)(C)C [Compound 2] ... remarkable toxic effect
CCCSC[C@@H]1[C@@H](O[Si](C)(C)C(C)(C)C)[C@H](n2cc(C)c(=O)[nH]c2=O)O[C@@H]1CO[Si](C)(C)C(C)(C)C [Compound 5] ... remarkable toxic effect
